# targetDesc: human MSLN on OVCAR3 tumor cells (human) (UniProt Q13421)
# Sequence (Q13421 other isoform, or with tags, fused parts or gaps): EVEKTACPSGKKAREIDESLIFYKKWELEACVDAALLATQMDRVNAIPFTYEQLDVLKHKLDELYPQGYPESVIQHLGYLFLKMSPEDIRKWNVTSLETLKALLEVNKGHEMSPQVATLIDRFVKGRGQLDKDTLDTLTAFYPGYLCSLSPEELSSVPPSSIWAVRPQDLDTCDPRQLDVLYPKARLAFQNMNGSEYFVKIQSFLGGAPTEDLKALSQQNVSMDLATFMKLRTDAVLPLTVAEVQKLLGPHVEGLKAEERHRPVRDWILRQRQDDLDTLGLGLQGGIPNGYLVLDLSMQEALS
# experiment: FACS, OVCAR3 cells

binder	Maximum MFI
F3.80.22-H8 (scFv, not shown: small tags and cut ends) scFv: DIVMTQTPLSLPVTPGEPASISCRSSQSLEHNDGNTYLHWFLQKPGQSPQLLIYKVSNRFSGVPDRFSGSGSGTDFTLKISRVEAEDVGVYYCSQSTHVPFTFGQGTKLEIKGGGGSGGGGSGGGGSEVQLVQSGAEVKKPGATVKISCKASGYTFTDYEIHWVQQAPGKGLEWMGAFDPEIGGSAYNQKFKDRVTITADKSSSTAYMELSSLRSEDTAVYYCTDYYGSSSGYFDVWGTGTTVTVSS	502 MFI
F3.80.22-H1 (scFv, not shown: small tags and cut ends) scFv: DIVMTQTPLSLPVTPGEPASISCRSSQSLEHNNGNTYLHWFLQKPGQSPQLLIYKVSNRFSGVPDRFSGSGSGTDFTLKISRVEAEDVGVYYCSQSTHVPFTFGQGTKLEIKGGGGSGGGGSGGGGSEVQLVQSGAEVKKPGATVKISCKVSGYTFTDYEIHWVQQAPGKGLEWMGAFDPEIGGSAYNQKFKDRVTITADKSTDTAYMELSSLRSEDTAVYYCTDYYGSSSGYFDVWGQGTTVTVSS	471 MFI
F3.80.22-H4 (scFv, not shown: small tags and cut ends) scFv: DIVMTQTPLSLPVTPGEPASISCRSSQSLEHNNGNTYLHWFLQKPGQSPQLLIYKVSNRFSGVPDRFSGSGSGTDFTLKISRVEAEDVGVYYCSQSTHVPFTFGQGTKLEIKGGGGSGGGGSGGGGSEVQLVQSGAEVKKPGATVKISCKASGYTFTDYEIHWVQQAPGKGLEWMGAFDPEIGGSAYNQKFKDRVTITADKSSSTAYMELSSLRSEDTAVYYCTDYYGSSSGYFDVWGTGTTVTVSS	505 MFI
F3.80.22-H3 (scFv, not shown: small tags and cut ends) scFv: DIVMTQTPLSLPVTPGEPASISCRSSQSLEHNNGNTYLHWFLQKPGQSPQLLIYKVSNRFSGVPDRFSGSGSGTDFTLKISRVEAEDVGVYYCSQSTHVPFTFGQGTKLEIKGGGGSGGGGSGGGGSEVQLVQSGAEVKKPGATVKISCKASGYTFTDYEIHWVQQAPGKGLEWMGAFDPEIGGSAYNQKFKDRVTITADKSTSTAYMELSSLRSEDTAVYYCTDYYGSSSGYFDVWGTGTTVTVSS	502 MFI
F3.80.22-H17 (scFv, not shown: small tags and cut ends) scFv: EVQLVQSGAEVKKPGATVKISCKVSGYTFTDYEIHWVQQAPGKGLEWMGAFDPEIGGSAYNQKFKDRVTITADKSTDTAYMELSSLRSEDTAVYYCTDYYGSSSGYFDVWGQGTTVTVSSGGGGSGGGGSGGGGSDIVMTQTPLSLPVTPGEPASISCRSSQSLEHNDGNTYLHWFLQKPGQSPQLLIYKVSNRFSGVPDRFSGSGSGTDFTLKISRVEAEDVGVYYCSQSTHVPFTFGQGTKLEIK	456 MFI
F3.80.22-H7 (scFv, not shown: small tags and cut ends) scFv: DIVMTQTPLSLPVTPGEPASISCRSSQSLEHNDGNTYLHWFLQKPGQSPQLLIYKVSNRFSGVPDRFSGSGSGTDFTLKISRVEAEDVGVYYCSQSTHVPFTFGQGTKLEIKGGGGSGGGGSGGGGSEVQLVQSGAEVKKPGATVKISCKASGYTFTDYEIHWVQQAPGKGLEWMGAFDPEIGGSAYNQKFKDRVTITADKSTSTAYMELSSLRSEDTAVYYCTDYYGSSSGYFDVWGTGTTVTVSS	479 MFI
